Taken from ChEMBL document CHEMBL3822423.

assay.info: Antibacterial activity against Eberthella typhosa ATCC 14028 after 18 to 24 hrs
Assay type: functional
Output Met for records whose MIC is lower than 5 µg/mL, Not met for records at or above 5 µg/mL.

>>> assigned_class("CCn1cc(C(=O)O)c(=O)c2cc(F)c(N3CCNCC3)cc21 [NORFLOXACIN]")
"Not met"
>>> assigned_class("CCn1cc(-c2csc(N)n2)c(=O)c2ccc(C(F)(F)F)cc21")
"Met"
>>> assigned_class("CCn1cc(-c2csc(N)n2)c(=O)c2cc(Cl)cc(Cl)c21")
"Met"
>>> assigned_class("CCn1cc(C(C)=O)c(=O)c2cc(F)c(N3CCCCC3)cc21")
"Not met"

Field: below-cutoff. Rule: recorded MIC strictly less than 5 µg/mL. Subject: CCn1cc(-c2csc(N)n2)c(=O)c2cc(F)c(N3CCNCC3)cc21 Not met

Is MIC of CCn1cc(-c2csc(N)n2)c(=O)c2cc(F)c(F)cc21 strictly below 5 µg/mL? Met

Lab log: compare recorded MIC with 5 µg/mL; is it strictly lower for CCn1cc(-c2csc(N)n2)c(=O)c2cc(F)c(N3CCN(C(=O)OC(C)(C)C)CC3)cc21 ? Not met

State whether 5 µg/mL exceeds MIC recorded for CCn1cc(-c2csc(N)n2)c(=O)c2cc(N3CCCC3)c(Cl)cc21 . Met

Does CCn1cc(-c2csc(N)n2)c(=O)c2cc(C)ccc21 have MIC strictly under 5 µg/mL? Not met

Confirm or reject: MIC of CCn1cc(-c2csc(N)n2)c(=O)c2cc(N3CCNCC3)c(Cl)cc21 lies strictly below 5 µg/mL Not met

###

Test system: Micrococcus luteus
assay.info: Antibacterial activity against Micrococcus luteus ATCC 4698 after 18 to 24 hrs
Format: functional
measurement.context: NCTC 2665
Calls of active or inactive are those of the source. The rule behind the calls is not given here.
measured.quantity: MIC

Solved cases below.
>>> reported_measurement("CCn1cc(-c2csc(N)n2)c(=O)c2cc(N3CCCC3)c(Cl)cc21")
"2.7 µg/mL"
>>> reported_measurement("CCn1cc(-c2csc(N)n2)c(=O)c2cc(N3CCNCC3)c(Cl)cc21")
"32 µg/mL"
>>> reported_measurement("CCn1cc(C(C)=O)c(=O)c2cc(N3CCCC3)c(Cl)cc21")
"10.7 µg/mL"
>>> reported_measurement("CCn1cc(C(C)=O)c(=O)c2cc(F)c(N3CCN(C(=O)OC(C)(C)C)CC3)cc21")
"inactive"
>>> reported_measurement("CCn1cc(-c2csc(N)n2)c(=O)c2cc(N3CCCCC3)c(Cl)cc21")
"49 µg/mL"
>>> reported_measurement("CCn1cc(C(=O)O)c(=O)c2cc(F)c(N3CCNCC3)cc21 [NORFLOXACIN]")
"2.7 µg/mL"
>>> reported_measurement("CCn1cc(-c2csc(N)n2)c(=O)c2cc(C)ccc21")
"5.4 µg/mL"
>>> reported_measurement("CCn1cc(C(C)=O)c(=O)c2cc(F)c(N3CCOCC3)cc21")
"128 µg/mL"
>>> reported_measurement("CCn1cc(-c2csc(N)n2)c(=O)c2cc(F)c(N3CCNCC3)cc21")
"64.2 µg/mL"

# input for lookup
// field: MIC; key: CCn1cc(-c2csc(N)n2)c(=O)c2cc(F)c(N3CCCCC3)cc21 ; value = inactive

###

Tested on: Pseudomonas aeruginosa
assay.info: Antibacterial activity against Pseudomonas aeruginosa ATCC 9027 after 18 to 24 hrs
Format: functional
MIC vs 30 mg/L: less than gives Criterion met; not less than gives Criterion not met.

>>> assigned_class("CCn1cc(-c2csc(N)n2)c(=O)c2cc(N3CCCCC3)c(Cl)cc21")
"Criterion not met"
>>> assigned_class("CCn1cc(-c2csc(N)n2)c(=O)c2ccc(C(F)(F)F)cc21")
"Criterion met"
>>> assigned_class("O=C(N[C@H](CO)[C@H](O)c1ccc([N+](=O)[O-])cc1)C(Cl)Cl")
"Criterion not met"
>>> assigned_class("CCn1cc(C(C)=O)c(=O)c2cc(N3CCCC3)c(Cl)cc21")
"Criterion met"

Criterion: MIC strictly below 30 mg/L. Is it met by CCn1cc(C(C)=O)c(=O)c2cc(N3CCOCC3)c(Cl)cc21 ? Criterion not met

Please determine if CCn1cc(-c2csc(N)n2)c(=O)c2cc(F)c(N3CCCCC3)cc21 is below 30 mg/L in terms of MIC. Criterion not met

I wonder whether CCn1cc(-c2csc(N)n2)c(=O)c2cc(F)ccc21 has MIC below 30 mg/L. Can you tell? Criterion met

Find out if reported MIC for CCn1cc(-c2csc(N)n2)c(=O)c2cc(OC)ccc21 is less than 30 mg/L Criterion met

###

assay.info: Antibacterial activity against Eberthella typhosa ATCC 14028 after 18 to 24 hrs
Type: functional
measured.quantity: MIC (µg/mL)
Give just the number in µg/mL; leave the unit off.

// below: answered molecules
>>> reported_measurement("CCn1cc(-c2csc(N)n2)c(=O)c2cc(F)c(N3CCCC3)cc21")
42.7
>>> reported_measurement("CCn1cc(-c2csc(N)n2)c(=O)c2cc(F)c(N3CCOCC3)cc21")
14.7

Record CCn1cc(-c2csc(N)n2)c(=O)c2cc(F)ccc21 , field MIC: 21.3

###

assay.info: Cytotoxicity against human LO2 cells assessed as cell viability at <512 ug/mL after 72 hrs by MTT assay relative to control
Assay type: cell-based, L02
measurement.context: read-out: Activity
measured.quantity: viability at 72 h

According to the records, this compound CCn1cc(-c2csc(N)n2)c(=O)c2cc(N3CCCC3)c(Cl)cc21 displays viability at 72 h of > 88%

###

Test system: Pseudomonas aeruginosa
assay.info: Antibacterial activity against Pseudomonas aeruginosa ATCC 9027 after 18 to 24 hrs
Format: functional
MIC less than 20 µg/mL is yes (1); MIC greater than or equal to 20 µg/mL is no (0).

Worked examples, 3 compounds total:
>>> assigned_class("CCn1cc(-c2csc(N)n2)c(=O)c2cc(F)c(N3CCCC3)cc21")
"no (0)"
>>> assigned_class("CCn1cc(-c2csc(N)n2)c(=O)c2cc(F)c(Cl)cc21")
"yes (1)"
>>> assigned_class("CCn1cc(-c2csc(N)n2)c(=O)c2cc(F)c(N3CCOCC3)cc21")
"yes (1)"

# strict comparison: is reported MIC < 20 µg/mL? input = CCn1cc(-c2csc(N)n2)c(=O)c2cc(F)c(N3CCN(C(=O)OC(C)(C)C)CC3)cc21 yes (1)

is_below(MIC, 20 µg/mL) for CCn1cc(-c2csc(N)n2)c(=O)c2cccc(F)c21 ? no (0)

###

System: Eberthella typhosa
assay.info: Antibacterial activity against Eberthella typhosa ATCC 14028 after 18 to 24 hrs
Assay type: functional
Active and inactive are the calls of the source. The rule behind the calls is not given here.
measured.quantity: MIC

>>> reported_measurement("CCn1cc(-c2csc(N)n2)c(=O)c2cccc(F)c21")
"inactive"
>>> reported_measurement("CCn1cc(-c2csc(N)n2)c(=O)c2cc(F)cc(F)c21")
"inactive"
>>> reported_measurement("CCn1cc(C(C)=O)c(=O)c2cc(N3CCCCC3)c(Cl)cc21")
"inactive"
>>> reported_measurement("CCn1cc(-c2csc(N)n2)c(=O)c2cc(N3CCN(C(=O)OC(C)(C)C)CC3)c(Cl)cc21")
"inactive"

###

assay.info: Antibacterial activity against Eberthella typhosa ATCC 14028 after 18 to 24 hrs
Type: functional
measured.quantity: MIC (µg/mL)
Give the quantity in µg/mL, number only.

>>> reported_measurement("O=C(N[C@H](CO)[C@H](O)c1ccc([N+](=O)[O-])cc1)C(Cl)Cl [CHLORAMPHENICOL]")
26.6
>>> reported_measurement("CCn1cc(-c2csc(N)n2)c(=O)c2cc(F)c(Cl)cc21")
2.6
>>> reported_measurement("CCn1cc(-c2csc(N)n2)c(=O)c2cc(N3CCOCC3)c(Cl)cc21")
95.7

Kindly consider the entry below.
MIC in this record for CCn1cc(-c2csc(N)n2)c(=O)c2cc(OC)ccc21 : 8

###

Known MIC of a selection of compounds
Tested on: Pseudomonas aeruginosa
assay.info: Antibacterial activity against Pseudomonas aeruginosa ATCC 9027 after 18 to 24 hrs
Type: functional

>>> reported_measurement("CCn1cc(-c2csc(N)n2)c(=O)c2cc(N3CCOCC3)c(Cl)cc21")
"170 µg/mL"
>>> reported_measurement("CCn1cc(-c2csc(N)n2)c(=O)c2cc(F)c(N3CCNCC3)cc21")
"4 µg/mL"

The reported Pseudomonas aeruginosa MIC of CCn1cc(-c2csc(N)n2)c(=O)c2cc(N3CCNCC3)c(Cl)cc21 is 10.7 µg/mL

Record CCn1cc(-c2csc(N)n2)c(=O)c2cc(C)ccc21 / Pseudomonas aeruginosa, MIC recorded as 2.7 µg/mL
